Measured values drawn from patent US10556898B2 for this set.

- studyTarget: GST-tagged human ROCK2 catalytic domain 1-553 (Homo sapiens)
- Construct: GST-tagged human ROCK2 catalytic domain 1-553 from Carna Biosciences (Cat #01-110); purchased Carna Biosciences 01-110; host or cells: baculovirus expression system
- Sequence (O75116 1-553): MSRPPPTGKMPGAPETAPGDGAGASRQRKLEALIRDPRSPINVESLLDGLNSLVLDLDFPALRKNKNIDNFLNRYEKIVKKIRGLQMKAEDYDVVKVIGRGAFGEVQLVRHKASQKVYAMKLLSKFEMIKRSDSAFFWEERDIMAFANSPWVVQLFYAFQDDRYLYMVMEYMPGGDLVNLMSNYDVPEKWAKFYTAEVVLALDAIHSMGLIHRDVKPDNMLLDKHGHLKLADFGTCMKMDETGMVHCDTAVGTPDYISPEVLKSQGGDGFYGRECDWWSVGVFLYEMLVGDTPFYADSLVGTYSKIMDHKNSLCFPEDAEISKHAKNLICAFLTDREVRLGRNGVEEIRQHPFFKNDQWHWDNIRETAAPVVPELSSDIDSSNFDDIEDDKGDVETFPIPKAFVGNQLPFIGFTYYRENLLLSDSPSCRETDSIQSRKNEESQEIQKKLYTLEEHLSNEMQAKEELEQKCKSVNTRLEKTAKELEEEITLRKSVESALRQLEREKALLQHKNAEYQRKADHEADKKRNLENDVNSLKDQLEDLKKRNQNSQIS
- assay: Isolated Enzyme Assay, ROCK2 (LANCE Ultra ULight-CREBtide FRET)
- Type: biochemical
- appliedConditions: isolated enzyme assay; 30 μM highest concentration tested; read-out: Results from Isolated Enzyme Assay IC50 (μM) ROCK2
Exercise: state measured IC50 for each of the compounds provided.

Entry under test: `CC(C)N1CCN(c2cc(-c3nsc(Nc4ccc5[nH]ncc5c4Cl)n3)cn(C)c2=O)C1=O` . Its IC50 was < 1 µM

Form: compound = `Cc1nn(C(F)F)cc1S(=O)(=O)Nc1cccc(-c2nsc(Nc3ccc4[nH]ncc4c3Cl)n2)c1` ; IC50 = > 30 µM

The value of IC50 measured for the compound `Cn1nncc1C(=O)Nc1cccc(-c2nsc(Nc3ccc4[nH]ncc4c3Cl)n2)c1` turned out to be < 1 µM

The compound identified as `O=C(NCC(F)(F)F)c1cccc(-c2nsc(Nc3ccc4[nH]ncc4c3Cl)n2)c1` registered its IC50 at < 1 µM

Lab book: IC50 of `O=C1CCCN1c1cccc(-c2nsc(Nc3ccc4[nH]ncc4c3Cl)n2)c1` noted as < 1 µM

Sample `CN(C)CCn1cnc2c(-c3nsc(Nc4ccc5[nH]ncc5c4Cl)n3)cccc21` ; IC50 observed: 1 to 15 µM

response.value for `COc1ccc(C(=O)Nc2cc(-c3nsc(Nc4ccc5[nH]ncc5c4Cl)n3)ccn2)cc1` (field: IC50) = < 1 µM

# IC50 (compound: `C[C@H]1CN(c2cccc(-c3nsc(Nc4ccc5[nH]ncc5c4Cl)n3)c2)C(=O)O1` ) is < 1 µM

Value of IC50 reported for the compound `N#Cc1c(Nc2nc(-c3cccc([N+](=O)[O-])c3)ns2)ccc2[nH]ncc12` is > 30 µM

Lab note: measured IC50 of `O=C(Nc1cccc(-c2nsc(Nc3ccc4[nH]ncc4c3Cl)n2)c1)c1cc[nH]n1` was < 1 µM

Briefly, IC50 measured for `Cc1cc(NC(=O)c2cocn2)cc(-c2nsc(Nc3ccc4[nH]ncc4c3Cl)n2)n1` : < 1 µM

IC50 for `O=C1CCCN1c1cc(-c2nsc(Nc3ccc4[nH]ncc4c3Cl)n2)ccn1` is < 1 µM

###

- studyTarget: GST-tagged human ROCK1 catalytic domain 1-477 (Homo sapiens)
- Construct: human ROCK1 catalytic domain 1-477 from Carna Biosciences (cat #01-109); purchased Carna Biosciences 01-109; host or cells: baculovirus expression system
- Sequence (Q13464 1-477): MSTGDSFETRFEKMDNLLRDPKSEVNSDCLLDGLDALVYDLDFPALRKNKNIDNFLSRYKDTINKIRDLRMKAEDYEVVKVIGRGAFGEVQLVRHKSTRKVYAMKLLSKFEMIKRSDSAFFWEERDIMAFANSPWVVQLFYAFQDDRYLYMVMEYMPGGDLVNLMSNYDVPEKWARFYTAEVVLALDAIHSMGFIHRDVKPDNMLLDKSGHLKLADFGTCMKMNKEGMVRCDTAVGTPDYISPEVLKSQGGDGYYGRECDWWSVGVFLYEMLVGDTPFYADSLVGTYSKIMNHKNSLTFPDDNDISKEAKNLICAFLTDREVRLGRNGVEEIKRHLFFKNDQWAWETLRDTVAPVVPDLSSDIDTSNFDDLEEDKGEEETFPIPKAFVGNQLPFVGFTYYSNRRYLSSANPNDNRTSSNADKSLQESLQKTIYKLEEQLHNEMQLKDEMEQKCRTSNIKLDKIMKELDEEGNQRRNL
- assay: Isolated Enzyme Assay, ROCK1 (LANCE Ultra ULight-CREBtide FRET)
- Format: biochemical
- appliedConditions: isolated enzyme assay; 30 μM highest concentration tested; read-out: Results from Isolated Enzyme Assay IC50 (μM) ROCK1
Assignment: determine reported IC50 for the given molecules.

Record summary for Cc1cc(NC(=O)c2cnco2)cc(-c2nsc(Nc3ccc4[nH]ncc4c3Cl)n2)n1 [IV-25] : reported IC50 = < 1 µM

For this molecule ( Cc1coc(-c2cncc(-c3nsc(Nc4ccc5[nH]ncc5c4Cl)n3)c2)n1 [IV-97] ), measured IC50 is > 30 µM

Value of measured IC50 for the entry Cc1cc(-c2nc(C)co2)cc(-c2nsc(Nc3ccc4[nH]ncc4c3Cl)n2)n1 [IV-105] : > 30 µM

Per the records, this molecule ( O=C(Nc1cccc(-c2nsc(Nc3ccc4[nH]ncc4c3Cl)n2)c1)c1ccccn1 [IV-74] ) has IC50 equal to < 1 µM

Form: molecule = CC1(C)CN(c2cccc(-c3nsc(Nc4ccc5[nH]ncc5c4Cl)n3)c2)C(=O)O1 [IV-54] ; IC50 = < 1 µM

Per the records, this molecule ( Cc1coc(-c2cccc(-c3nsc(Nc4ccc5[nH]ncc5c4F)n3)c2)n1 [IV-15] ) has IC50 equal to < 1 µM

The measured IC50 associated with C[C@H]1CN(c2cccc(-c3nsc(Nc4ccc5[nH]ncc5c4Cl)n3)c2)C(=O)O1 [IV-32] reads < 1 µM

IC50 recorded for this molecule, COc1ncc(C(=O)Nc2cncc(-c3nsc(Nc4ccc5[nH]ncc5c4Cl)n3)c2)cn1 [IV-8] , is > 30 µM

Reported IC50 ( Cc1cc(NC(=O)c2cc(C)nn2C)cc(-c2nsc(Nc3ccc4[nH]ncc4c3Cl)n2)n1 [IV-37] ) = > 30 µM

Reported IC50 ( Cc1coc(-c2cc(-c3nsc(Nc4ccc5[nH]ncc5c4Cl)n3)ccn2)n1 [IV-59] ) = > 30 µM

Measured IC50, Cc1coc(-c2cccc(-c3nsc(Nc4cc5cn[nH]c5cc4F)n3)c2)n1 [IV-93] : > 30 µM

Consider O=C(NC1CCOCC1)c1cc(-c2nsc(Nc3ccc4[nH]ncc4c3Cl)n2)ccc1F [IV-47] . Its measured IC50 is < 1 µM

Reported IC50 of Cc1ncc(-c2nsc(Nc3ccc4[nH]ncc4c3Cl)n2)cc1NC(=O)c1ccnn1C [IV-69] : 1 to 15 µM

IC50 measured on O=C(CC1CCCO1)Nc1cccc(-c2nsc(Nc3ccc4[nH]ncc4c3Cl)n2)c1 (stereo not drawn) [IV-71] = < 1 µM

Input Cn1cc(-c2nsc(Nc3ccc4[nH]ncc4c3Cl)n2)cc(NC(=O)c2cnccn2)c1=O [IV-1] . Output IC50: > 30 µM

For record Cc1nc(C)c(C(=O)Nc2cccc(-c3nsc(Nc4ccc5[nH]ncc5c4Cl)n3)c2)o1 [IV-61] the listed IC50 is < 1 µM

For record Cn1ccc(C(=O)Nc2cc(-c3nsc(Nc4ccc5[nH]ncc5c4Cl)n3)cn(C)c2=O)n1 [IV-10] the listed IC50 is > 30 µM

Record Cn1nncc1C(=O)Nc1cccc(-c2nsc(Nc3ccc4[nH]ncc4c3Cl)n2)c1 [IV-62] . Reported IC50: < 1 µM
